All values here come from patent US10584124B2.

Assay: Solubility of the free base of the compound of Formula I in solvents and mixed solvent systems
Format: physicochemical
Details: 25 °C, organic solvent or mixture, thermodynamic from solid; 80% THF in EtOH, room temperature; read-out: Solubility
property-measured: solubility (µg/mL)
One number for each entry, in µg/mL.

Input: Need solubility, item COc1ccc(CN2CCN(c3ccc(-c4cc(-c5cnn(C)c5)cn5ncc(C#N)c45)cn3)CC2)cn1 [freebase of the compound of Formula I]
Output: 3090

----------
Test: Solubility of the free base of the compound of Formula I in solvents and mixed solvent systems
Format: physicochemical
Conditions: 25 °C, organic solvent or mixture, thermodynamic from solid; 70% DCM in EtOH, room temperature; read-out: Solubility
property-measured: solubility (mg/mL)
Numbers only, in mg/mL.

Input: Need solubility, item COc1ccc(CN2CCN(c3ccc(-c4cc(-c5cnn(C)c5)cn5ncc(C#N)c45)cn3)CC2)cn1 [freebase of the compound of Formula I]
Output: 22.7

----------
Assay: Solvent solubility screen of the compound of Formula II
Type: physicochemical
Settings: 1-Propanol, 40 °C, organic solvent or mixture, thermodynamic from solid; read-out: Approximate solubility
property-measured: solubility

Input: Need solubility, item COc1ccc(CN2C3CC2CN(c2ccc(-c4cc(OCC(C)(C)O)cn5ncc(C#N)c45)cn2)C3)cn1
Output: < 5 mg/mL

----------
Experiment: Primary salt screen of the compound of Formula II: XRPD post-cycling and post-stability (40° C., 75% RH overnight)
Type: physicochemical
Settings: compound of Formula II + the acid given as label; EtOH/water (10%); cycled RT/40° C. over 24 hours
property-measured: XRPD post-cycling

Known results for compounds:
O=C(O)C(=O)O [Oxalic acid] | Amorphous
CS(=O)(=O)O [Methane sulfonic acid] | Amorphous
O=S(=O)(O)c1ccccc1 [Benzene sulfonic acid] | Form 2
O=S(=O)(O)O [Sulfuric acid] | No solid
O=C(O)/C=C\C(=O)O [Maleic acid] | Amorphous

List reported XRPD post-cycling for each of these compounds:
1. O=S(=O)(O)CCS(=O)(=O)O [1,2-Ethane disulfonic acid]
2. O=S(=O)(O)c1ccc2ccccc2c1 [Naphthalene-2-sulfonic acid]
3. Cc1ccc(S(=O)(=O)O)cc1 [p-Toluene sulfonic acid]
4. Cl [Hydrochloric acid]
5. CCS(=O)(=O)O [Ethane sulfonic acid]

Output:
1. No solid
2. Form 2
3. Amorphous
4. Form 2
5. No solid

----------
Assay: Primary salt screen of the compound of Formula II: XRPD post-cycling and post-stability (40° C., 75% RH overnight)
Assay type: physicochemical
Settings: compound of Formula II + the acid given as label; IPA/water (10%); cycled RT/40° C. over 24 hours
property-measured: XRPD post-cycling

Known results for molecules:
CCS(=O)(=O)O [Ethane sulfonic acid] | Amorphous
CS(=O)(=O)O [Methane sulfonic acid] | Form 2
Cl [Hydrochloric acid] | Form 2
Cc1ccc(S(=O)(=O)O)cc1 [p-Toluene sulfonic acid] | Amorphous
O=S(=O)(O)c1ccccc1 [Benzene sulfonic acid] | Form 2

List reported XRPD post-cycling for each of these molecules:
1. O=C(O)/C=C\C(=O)O [Maleic acid]
2. O=C(O)C(=O)O [Oxalic acid]

Output:
1: Amorphous; 2: Amorphous

----------
Experiment: Solubility of the free base of the compound of Formula I in solvents and mixed solvent systems
Format: physicochemical
Conditions: 100% THF (THF/H2O series), 25 °C, organic solvent or mixture, thermodynamic from solid; title: THF/H2O at room temperature; head: % THF in EtOH = 100; read-out: Solubility
property-measured: solubility

Input: Need solubility, item COc1ccc(CN2CCN(c3ccc(-c4cc(-c5cnn(C)c5)cn5ncc(C#N)c45)cn3)CC2)cn1 [freebase of the compound of Formula I]
Output: 2590 µg/mL
